pIC50: −log10 of the molar value.
Parameter 'readout' = pIC50; parameter 'system' = USP7 (Homo sapiens, UniProt Q93009).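 Further: fluorescence intensity readout of USP7 enzymatic activity, reaction incubated 90 min at room temperature.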
Sequence (Q93009 whole entry): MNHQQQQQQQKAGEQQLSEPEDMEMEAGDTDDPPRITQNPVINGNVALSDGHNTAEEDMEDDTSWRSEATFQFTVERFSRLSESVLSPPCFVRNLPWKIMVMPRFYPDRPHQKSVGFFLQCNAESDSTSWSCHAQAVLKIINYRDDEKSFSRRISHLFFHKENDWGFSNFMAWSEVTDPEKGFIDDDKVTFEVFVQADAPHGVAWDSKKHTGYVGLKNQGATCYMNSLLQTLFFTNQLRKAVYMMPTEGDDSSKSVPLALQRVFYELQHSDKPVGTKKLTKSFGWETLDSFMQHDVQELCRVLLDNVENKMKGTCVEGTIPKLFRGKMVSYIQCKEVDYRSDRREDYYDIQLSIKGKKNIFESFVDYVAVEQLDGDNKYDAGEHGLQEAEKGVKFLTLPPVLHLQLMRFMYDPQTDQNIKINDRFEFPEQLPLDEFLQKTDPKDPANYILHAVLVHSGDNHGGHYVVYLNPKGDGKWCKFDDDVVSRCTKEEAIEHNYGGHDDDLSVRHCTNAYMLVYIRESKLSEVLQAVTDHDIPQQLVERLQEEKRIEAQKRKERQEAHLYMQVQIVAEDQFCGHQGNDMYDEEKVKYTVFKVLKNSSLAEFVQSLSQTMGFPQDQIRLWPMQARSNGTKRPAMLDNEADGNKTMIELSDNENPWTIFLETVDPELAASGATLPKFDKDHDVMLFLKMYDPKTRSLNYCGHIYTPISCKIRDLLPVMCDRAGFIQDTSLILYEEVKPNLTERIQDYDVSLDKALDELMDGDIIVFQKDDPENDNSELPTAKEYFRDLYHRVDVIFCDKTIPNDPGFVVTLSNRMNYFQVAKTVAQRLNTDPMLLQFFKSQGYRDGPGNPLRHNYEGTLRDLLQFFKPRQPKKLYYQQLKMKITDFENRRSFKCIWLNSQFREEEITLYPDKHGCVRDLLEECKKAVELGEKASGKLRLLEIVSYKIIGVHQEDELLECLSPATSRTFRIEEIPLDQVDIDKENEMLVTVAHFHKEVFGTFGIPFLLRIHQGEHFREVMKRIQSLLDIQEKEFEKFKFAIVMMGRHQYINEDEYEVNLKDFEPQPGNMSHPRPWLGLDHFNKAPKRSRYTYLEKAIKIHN

Solved entries:
>  <COMPOUND>
O=C1CCC(=O)N1Cc1cc2nccc(-c3cc(Cl)cc4c3N([C@H]3CCCNCC3)CCC4)c2s1 (single isomer, unassigned) [Example 47a]

>  <pIC50>
> 8.00

$$$$
>  <COMPOUND>
Cn1ccnc(Cc2cc3nccc(-c4cc(Cl)cc5c4N([C@@H]4CNC6(CCC6)C4)CCC5)c3s2)c1=O (stereo in doubt)

>  <pIC50>
6.00 to 7.00

$$$$
>  <COMPOUND>
O=C1CCC(=O)N1Cc1cc2nccc(-c3cc(Cl)cc4c3N([C@@H]3CCCNCC3)CCC4)c2s1 (single isomer, unassigned) [Example 47b]

>  <pIC50>
> 8.00

$$$$

Now turn to the next compound.
## Input Report measured pIC50; entry is O=C1CCC(=O)N1Cc1cc2nccc(-c3cc(Cl)cc4c3N(C3CNC3)C[C@H]3C[C@@H]43)c2s1 (single isomer, unassigned) [Example 43b]
## Output 7.00 to 8.00
